Molecular target: SOST (Homo sapiens, UniProt Q9BQB4)
Construct: commercial recombinant SOST (SinoBio 10593-H07H), biotinylated and immobilized on Octet SSA biosensors
Sequence (Q9BQB4 24-213): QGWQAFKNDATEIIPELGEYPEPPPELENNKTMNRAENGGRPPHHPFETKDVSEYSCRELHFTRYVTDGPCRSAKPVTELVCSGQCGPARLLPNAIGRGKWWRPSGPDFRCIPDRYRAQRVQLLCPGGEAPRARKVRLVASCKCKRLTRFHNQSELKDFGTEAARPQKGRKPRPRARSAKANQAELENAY
Assay: biochemical
Settings: multi-concentration BLI, 30 C
pKd: −log10 of the molar value.
parameter_measured: pKd

[[record]]
smiles_string = "Cc1ccc(-c2nnc(Nc3ccccc3)c3ccccc23)cc1S(=O)(=O)NCc1nc2ccccc2[nH]1"
recorded_number = 3.40


Hey, just so you know, these numbers are from paper PMC9798707.
